methodSummary: chemical genetic growth profiling, strain panel (AID 1159580);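 further: tested at 20 µM; growth read once vehicle control cultures reached saturation at 30 °C; lower values mean less growth of the strain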
conditionNotes: S. cerevisiae deletion strains, growth OD, locus YMR205C, strain PFK2
The campaign covered roughly 5,500 compounds. About 2,000 (36%) were called active. Roughly 18% stayed inconclusive and do not appear here. No stated cut-off is given here; in the data, active means normalized growth mostly below about 0.91 (no sharp cut-off); inconclusive means no clear call, values can overlap the other calls; inactive means mostly above about 0.92. The list shows a part of the results.
Outcomes: Yes (active), No (inactive)

INSERT INTO measurements (compound, assignedlabel) VALUES
  ('CC1=NCCc2c1[nH]c1cc(O)ccc21', 'No'),
  ('CCC(CCC(C)[C@H]1CCC2C3CC=C4C[C@@H](O)CC[C@]4(C)C3CC[C@@]21C)C(C)C (stereo not given in full)', 'No'),
  ('C=CCCCCCCCCCCCC(O)CC(O)CO (stereo not given)', 'No'),
  ('CN(N=O)C(=O)N[C@@H]1[C@@H](O)[C@H](O)[C@@H](CO)O[C@@H]1O', 'No'),
  ('CC[C@]12C=CCN3CC[C@@]4(c5ccc(OC)cc5N(C)C4[C@@](O)(C(=O)OC)[C@@H]1OC(C)=O)[C@@H]32 (stereo not given in full)', 'No'),
  ('CC1=CCc2c(cc3oc(C)cc(=O)c3c2O)OC1', 'No'),
  ('COc1cc([C@@H]2c3cc4c(cc3C(O[C@@H]3O[C@@H]5CO[C@@H](c6cccs6)OC5[C@H](O)[C@H]3O)C3COC(=O)[C@@H]32)OCO4)cc(OC)c1O (stereo not given in full)', 'No'),
  ('CC(=O)OCC(=O)[C@@]1(O)CCC2C3CC[C@@H]4C[C@H](O)CC[C@]4(C)C3C(=O)C[C@@]21C (stereo not given in full)', 'No'),
  ('C[n+]1cc2c3c(ccc2c2ccc4cc5c(cc4c21)OCO5)OCO3', 'Yes'),
  ('CC(C(=O)O)[C@H]1CCC2C3CC=C4C[C@@H](O)CC[C@]4(C)C3CC[C@@]21C (stereo not given in full)', 'No'),
  ('C/C(=C\C(=O)OCCCCCCCCC(=O)O)C[C@@H]1OC[C@H](C[C@@H]2O[C@H]2[C@@H](C)[C@H](C)O)[C@@H](O)[C@H]1O', 'No'),
  ('CC(=O)OCC(=O)[C@H]1CCC2C3CC=C4C[C@@H](O)CC[C@]4(C)C3CC[C@@]21C (stereo not given in full)', 'Yes'),
  ('COc1c(O)cccc1O', 'No'),
  ('COc1c2c(cc3c1OCO3)CC[N+](C)=C2', 'No'),
  ('O=c1cc(-c2cccc(O)c2)oc2ccc(O)cc12', 'No'),
  ('O=C1CN2Cc3c(ccc(Cl)c3Cl)N=C2N1', 'No'),
  ('Nc1nnc(-c2cccc(Cl)c2Cl)c(N)n1', 'No'),
  ('CCCCOc1cc(CC2CNC(=O)N2)ccc1OC (stereo not given)', 'No'),
  ('O=c1oc2ccccc2c(O)c1Cc1c(O)c2ccccc2oc1=O', 'No'),
  ('CCC(/C=C/[C@@H](C)[C@H]1CCC2C3CC=C4C[C@@H](O)CC[C@]4(C)C3CC[C@@]21C)C(C)C (stereo not given in full)', 'No');
